// IC50 lookup, one value per entry
system: LC-1F; experiment: cells; type: functional, cell-based; conditions: Homo sapiens;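 also: growth inhibition of human LC-1F cells, read out with a cell viability assay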
Description: SANGER: Inhibition of human LC-1F cell growth in a cell viability assay.

| MOLECULE | STUDY SYSTEM | IC50 |
| --- | --- | --- |
| O=C(/C=C/c1ccccc1)NC(NC(=S)Nc1cccc2cccnc12)C(Cl)(Cl)Cl (stereo unspecified) [SALUBRINAL] | LC-1F | > 16 µM |
| Cc1cnc(-c2cnc(NCCNc3ccc(C#N)cn3)nc2-c2ccc(Cl)cc2Cl)[nH]1 [LADUVIGLUSIB] | LC-1F | > 2.56 µM |
| Cc1cc([C@@H](C)Nc2ccccc2C(=O)O)c2nc(N3CCOCC3)cc(=O)n2c1 [AZD-6482] | LC-1F | > 5.12 µM |
| Cn1cncc1[C@@](N)(c1ccc(Cl)cc1)c1ccc2c(c1)c(-c1cccc(Cl)c1)cc(=O)n2C [TIPIFARNIB] | LC-1F | > 16 µM |
| C=C1C(=O)O[C@@H]2C3O[C@]3(C)CC/C=C(\C)CC[C@@H]12 (stereo partly specified) | LC-1F | > 5 µM |
| COc1cc([C@@H]2c3cc4c(cc3[C@@H](O[C@@H]3O[C@@H]5CO[C@@H](C)O[C@H]5[C@H](O)[C@H]3O)[C@H]3COC(=O)[C@H]23)OCO4)cc(OC)c1O [ETOPOSIDE] | LC-1F | > 16 µM |

====

tested on: BV-173; test: cells; type: functional, cell-based; details: Homo sapiens
Description: SANGER: Inhibition of human BV-173 cell growth in a cell viability assay.
pIC50: −log10 of the molar value.

| COMPOUND | COMPARATOR | pIC50 |
| --- | --- | --- |
| C[C@]1(O)C[C@@H](c2nc(-c3ccc4ccc(-c5ccccc5)nc4c3)c3c(N)nccn32)C1 | < | 5.59 |
| CN(Cc1cnc2nc(N)nc(N)c2n1)c1ccc(C(=O)N[C@@H](CCC(=O)O)C(=O)O)cc1 [METHOTREXATE] | = | 8.20 |
| COc1cc([C@@H]2c3cc4c(cc3[C@@H](O[C@@H]3O[C@@H]5CO[C@@H](C)O[C@H]5[C@H](O)[C@H]3O)[C@H]3COC(=O)[C@H]23)OCO4)cc(OC)c1O [ETOPOSIDE] | = | 5.30 |
| COc1ccc(C2=N[C@@H](c3ccc(Cl)cc3)[C@@H](c3ccc(Cl)cc3)N2C(=O)N2CCNC(=O)C2)c(OC(C)C)c1 | = | 5.55 |
| CCc1nc(N)nc(N)c1-c1ccc(Cl)cc1 | = | 4.90 |
| CCC(=O)N1CCN(c2ccc(-n3c(=O)ccc4cnc5ccc(-c6cnc7ccccc7c6)cc5c43)cc2C(F)(F)F)CC1 | = | 7.66 |
| CCC1=C[C@@H]2CN(C1)Cc1c([nH]c3ccccc13)[C@@](C(=O)OC)(c1cc3c(cc1OC)N(C)[C@H]1[C@@](O)(C(=O)OC)[C@H](OC(C)=O)[C@]4(CC)C=CCN5CC[C@]31[C@@H]54)C2 | = | 7.52 |
| CC(=O)O[C@@H]1[C@@H](OC(C)=O)[C@@H](O)[C@H](Oc2c(-c3ccc(O)cc3)oc3cc(O)cc(O)c3c2=O)O[C@H]1C | = | 5.52 |
| CC(=O)O[C@@]12CO[C@@H]1C[C@H](O)[C@@]1(C)C(=O)[C@H](O)C3=C(C)[C@@H](OC(=O)[C@H](O)[C@@H](NC(=O)OC(C)(C)C)c4ccccc4)C[C@@](O)([C@@H](OC(=O)c4ccccc4)[C@H]21)C3(C)C | = | 8.28 |
| O=C(NOCC1CC1)c1ccc(F)c(F)c1Nc1ccc(I)cc1Cl | = | 5.84 |
| Cc1cc(Nc2cc(N3CCN(C)CC3)nc(Sc3ccc(NC(=O)C4CC4)cc3)n2)n[nH]1 | = | 6.90 |
| Nc1ccn([C@@H]2O[C@H](CO)[C@@H](O)[C@@H]2O)c(=O)n1 | = | 6.29 |
| C=C1C(=O)O[C@@H]2C3O[C@]3(C)CC/C=C(\C)CC[C@@H]12 (stereo partly drawn) | < | 5.30 |

====

Reported IC50 values for a set of molecules
system: EHEB; assay: cells; format: functional, cell-based; details: Homo sapiens
Description: SANGER: Inhibition of human EHEB cell growth in a cell viability assay.

| SMILES STRUCTURE | STUDY SYSTEM | IC50 |
| --- | --- | --- |
| CCC(=O)N1CCN(c2ccc(-n3c(=O)ccc4cnc5ccc(-c6cnc7ccccc7c6)cc5c43)cc2C(F)(F)F)CC1 | EHEB | 512 nM |
| Cc1cc(Nc2cc(N3CCN(C)CC3)nc(Sc3ccc(NC(=O)C4CC4)cc3)n2)n[nH]1 | EHEB | > 2000 nM |
| CN1CCN(CCOc2cc(OC3CCOCC3)c3c(Nc4c(Cl)ccc5c4OCO5)ncnc3c2)CC1 | EHEB | > 2000 nM |
| CS(=O)(=O)CCNCc1ccc(-c2ccc3ncnc(Nc4ccc(OCc5cccc(F)c5)c(Cl)c4)c3c2)o1 | EHEB | > 2000 nM |

====

tested on: MKN-28; assay: cells; assay type: functional, cell-based, Homo sapiens; conditions: Homo sapiens, MKN-28;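 also: cell viability assay read-out, IC50 reflects suppression of growth of human MKN-28 cells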
Description: SANGER: Inhibition of human MKN28 cell growth in a cell viability assay.

| SMILES STRUCTURE | IC50 |
| --- | --- |
| CCOc1nc(NC(=O)Cc2cc(OC)ccc2OC)cc(N)c1C#N | > 10000 nM |
| Cn1cncc1[C@@](N)(c1ccc(Cl)cc1)c1ccc2c(c1)c(-c1cccc(Cl)c1)cc(=O)n2C | 1440 nM |
| CN(c1ncccc1CNc1nc(Nc2ccc3c(c2)CC(=O)N3)ncc1C(F)(F)F)S(C)(=O)=O | > 2560 nM |
| Cc1cnc(-c2cnc(NCCNc3ccc(C#N)cn3)nc2-c2ccc(Cl)cc2Cl)[nH]1 | > 2560 nM |
| CC(=O)O[C@@]12CO[C@@H]1C[C@H](O)[C@@]1(C)C(=O)[C@H](O)C3=C(C)[C@@H](OC(=O)[C@H](O)[C@@H](NC(=O)OC(C)(C)C)c4ccccc4)C[C@@](O)([C@@H](OC(=O)c4ccccc4)[C@H]21)C3(C)C | 3.17 nM |
| COc1ccc(-c2ccc3c(N4CCOC[C@@H]4C)nc(N4CCOC[C@@H]4C)nc3n2)cc1CO | > 2000 nM |
| O=C(NOCC1CC1)c1ccc(F)c(F)c1Nc1ccc(I)cc1Cl | > 10000 nM |

====

system: A101D; assay: cells; format: functional, cell-based, Homo sapiens; conditions: Homo sapiens, A101D;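 also: growth inhibition of the cell line, measured with a viability assay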
Description: SANGER: Inhibition of human A101D cell growth in a cell viability assay.
METRIC NAME: IC50 (µM)

| MOLECULE | COMPARATOR | TEST RESULT |
| --- | --- | --- |
| COC(=O)CNC(=O)C(=O)OC | = | 163 |
| CN(c1ncccc1CNc1nc(Nc2ccc3c(c2)CC(=O)N3)ncc1C(F)(F)F)S(C)(=O)=O [PF-00562271] | > | 2.56 |
| COc1ccc(-c2ccc3c(N4CCOC[C@@H]4C)nc(N4CCOC[C@@H]4C)nc3n2)cc1CO [AZD-8055] | = | 0.49 |
| COc1cc([C@@H]2c3cc4c(cc3[C@@H](O[C@@H]3O[C@@H]5CO[C@@H](C)O[C@H]5[C@H](O)[C@H]3O)[C@H]3COC(=O)[C@H]23)OCO4)cc(OC)c1O [ETOPOSIDE] | = | 1.2 |
| CCOc1nc(NC(=O)Cc2cc(OC)ccc2OC)cc(N)c1C#N | > | 10 |
| Cn1cc(C2=C(c3ccc(Cl)cc3Cl)C(=O)NC2=O)c2ccccc21 [SB-216763] | > | 10 |
| O=c1cc(-c2cccc3c2Sc2ccccc2S3)oc(N2CCOCC2)c1 [KU-55933] | > | 10 |
| Cc1cc(Nc2cc(N3CCN(C)CC3)nc(Sc3ccc(NC(=O)C4CC4)cc3)n2)n[nH]1 [TOZASERTIB] | = | 1.87 |
| C[C@]1(O)C[C@@H](c2nc(-c3ccc4ccc(-c5ccccc5)nc4c3)c3c(N)nccn32)C1 [LINSITINIB] | > | 2.56 |
| CC1=C2C[C@H]3[C@@H](CC=C4C[C@@H](O)CC[C@@]43C)[C@@H]2CC[C@]12O[C@@H]1C[C@H](C)CN[C@H]1[C@H]2C [CYCLOPAMINE] | > | 16 |

====

In this section we review reported IC50 values for a set of compounds.
tested on: NCI-H1355; experiment: cells; assay type: functional, cell-based, Homo sapiens; conditions: Homo sapiens, NCI-H1355;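 also: growth inhibition of human NCI-H1355 cells, read out by a cell viability assay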
Description: SANGER: Inhibition of human NCI-H1355 cell growth in a cell viability assay.

| COMPOUND | IC50 |
| --- | --- |
| CCc1nc(N)nc(N)c1-c1ccc(Cl)cc1 [PYRIMETHAMINE] | > 20 µM |
| COc1ccc(C2=N[C@@H](c3ccc(Cl)cc3)[C@@H](c3ccc(Cl)cc3)N2C(=O)N2CCNC(=O)C2)c(OC(C)C)c1 [NUTLIN-3] | > 8 µM |
| CCC1=C[C@@H]2CN(C1)Cc1c([nH]c3ccccc13)[C@@](C(=O)OC)(c1cc3c(cc1OC)N(C)[C@H]1[C@@](O)(C(=O)OC)[C@H](OC(C)=O)[C@]4(CC)C=CCN5CC[C@]31[C@@H]54)C2 [VINORELBINE] | 0.0029 µM |
| CN(Cc1cnc2nc(N)nc(N)c2n1)c1ccc(C(=O)N[C@@H](CCC(=O)O)C(=O)O)cc1 [METHOTREXATE] | > 0.2 µM |
| CN1CCN(CCOc2cc(OC3CCOCC3)c3c(Nc4c(Cl)ccc5c4OCO5)ncnc3c2)CC1 [SARACATINIB] | > 2 µM |
| Cc1cc(Nc2cc(N3CCN(C)CC3)nc(Sc3ccc(NC(=O)C4CC4)cc3)n2)n[nH]1 [TOZASERTIB] | > 2 µM |
| CS(=O)(=O)CCNCc1ccc(-c2ccc3ncnc(Nc4ccc(OCc5cccc(F)c5)c(Cl)c4)c3c2)o1 [LAPATINIB] | > 2 µM |
| CCC(=O)N1CCN(c2ccc(-n3c(=O)ccc4cnc5ccc(-c6cnc7ccccc7c6)cc5c43)cc2C(F)(F)F)CC1 [TORIN1] | 0.0165 µM |
| CC1=C2C[C@H]3[C@@H](CC=C4C[C@@H](O)CC[C@@]43C)[C@@H]2CC[C@]12O[C@@H]1C[C@H](C)CN[C@H]1[C@H]2C [CYCLOPAMINE] | > 16 µM |
